Reference source: patent US20060111305A1

- protocolNotes: Rat plasma metabolite profiles after single oral 5 mg/kg [14C]DCDQ
- Format: in vivo, Sprague-Dawley rats
- reportedConditions: female, 8 hr, mean n = 3
Structures can show the parent of a compound that is named as a salt.
observable: Chromatographic distribution of radioactivity in rat plasma (%)
Answer with a number only, understood to be in %.

q: # get_value(readout='Chromatographic distribution of radioactivity in rat plasma', item= CC(=O)N1Cc2cccc3c2N(C[C@@H]2CCC[C@H]32)C(O)C1 (stereo partly drawn) [Metabolite M11, acetylated hydroxy DCDQ] )
a: 4.9

q: Also need c1cc2c3c(c1)[C@H]1CCC[C@H]1CN3CCNC2 [DCDQ, reference compound] , thanks.
a: 15

q: Also need O=S(=O)(O)N1CCN2C[C@@H]3CCC[C@@H]3c3cccc(c32)C1 [Metabolite M12, DCDQ sulfamate] , thanks.
a: 3.3

q: Also need OC1CNCc2cccc3c2N1C[C@@H]1CCC[C@H]31 (stereo partly drawn) [Metabolite M10, hydroxy DCDQ] , thanks.
a: 5.6

q: Also need O=S(=O)(O)OC1CC[C@@H]2c3cccc4c3N(CCNC4)CC12 (stereo partly drawn) [Metabolite M13, 17-hydroxy DCDQ sulfate] , thanks.
a: 1.6

q: Also need O=C1CC[C@@H]2c3cccc4c3N(CCNC4)C[C@H]12 [Metabolite M7, 17-keto DCDQ] , thanks.
a: 5.6
